Consider the following compounds; for each one, report its log10(IC50).
# TARGET_SYSTEM: HCV NS3 helicase NS3h_1b(con1) (Hepatitis C virus genotype 1b)
# Construct: truncated C-terminally His-tagged NS3 proteins lacking the N-terminal protease, called NS3h; His-tag (C); made in house
# Sequence (Q9WMX2 1192-1657): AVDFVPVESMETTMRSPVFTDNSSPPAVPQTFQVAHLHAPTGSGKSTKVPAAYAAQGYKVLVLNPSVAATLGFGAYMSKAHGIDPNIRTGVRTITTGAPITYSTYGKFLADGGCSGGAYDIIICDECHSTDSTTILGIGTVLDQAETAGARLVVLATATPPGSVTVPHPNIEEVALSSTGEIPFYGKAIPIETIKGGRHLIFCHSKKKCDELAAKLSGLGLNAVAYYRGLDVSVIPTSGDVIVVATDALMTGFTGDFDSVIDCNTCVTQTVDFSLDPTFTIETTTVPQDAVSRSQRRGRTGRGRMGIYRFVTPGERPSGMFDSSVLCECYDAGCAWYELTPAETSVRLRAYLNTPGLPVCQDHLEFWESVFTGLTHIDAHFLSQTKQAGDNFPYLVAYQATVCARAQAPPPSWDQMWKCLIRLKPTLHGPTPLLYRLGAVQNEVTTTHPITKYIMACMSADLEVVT
# MEASUREMENT_DESCRIPTION: biochemical
# Assay type: biochemical, hepatitis C virus genotype 1b(con1)
# TEST_CONTEXT: genotype 1b (con1); read-out: Target Potency MBHA (IC50 avg., μM) 1b (con1)
// do not treat as linear: log10 of IC50, unit µM

{"STRUCTURE_STRING": "Cc1ccc2nc(-c3ccc4nc(-c5ccc(NC(=O)c6cc(F)cc(C(F)(F)F)c6)cc5)sc4c3)sc2c1S(=O)(=O)O", "log10(IC50)": 1.45}
{"STRUCTURE_STRING": "Cc1ccc2nc(-c3ccc4nc(-c5ccc(NC(=O)c6cc(C(F)(F)F)cc(C(F)(F)F)c6)cc5)sc4c3)sc2c1S(=O)(=O)O", "log10(IC50)": 1.35}
{"STRUCTURE_STRING": "Cc1ccc2nc(-c3ccc4nc(-c5ccc(NC(=O)c6ccc(CNC(=O)OCC7c8ccccc8-c8ccccc87)cc6)cc5)sc4c3)sc2c1S(=O)(=O)O.N", "log10(IC50)": 0.64}
{"STRUCTURE_STRING": "Cc1ccc2nc(-c3ccc4nc(-c5ccc(NC(=O)c6ccccc6C(F)(F)F)cc5)sc4c3)sc2c1S(=O)(=O)O", "log10(IC50)": 1.15}

Here are 3 compounds. What values of log10(IC50) were reported for them?
1. Cc1ccc2nc(-c3ccc4nc(-c5ccc(NC(=O)c6ccc(N)cc6)cc5)sc4c3)sc2c1S(=O)(=O)O
2. Cc1ccc2nc(-c3ccc4nc(-c5ccc(N(C)C(=O)c6ccc7ccccc7c6)cc5)sc4c3)sc2c1S(=O)(=O)O
3. Cc1ccc2nc(-c3ccc4nc(-c5ccc(NC(=O)c6ccccc6)cc5)sc4c3)sc2c1S(=O)(=O)O

Return:
1.01
1.16
1.03

Here are 2 compounds. What values of log10(IC50) were reported for them?
1. Cc1ccc2nc(-c3ccc(NC(=O)c4ccc(NC(=O)c5ccc(NC(=O)OCC6c7ccccc7-c7ccccc76)cc5)cc4)cc3)sc2c1S(=O)(=O)O.N
2. COc1ccc(S(=O)(=O)Nc2ccc(-c3nc4ccc(-c5nc6ccc(C)c(S(=O)(=O)O)c6s5)cc4s3)cc2)cc1

Return:
1. 0.40
2. 1.39

Here are 2 compounds. What values of log10(IC50) were reported for them?
1. Cc1ccc2nc(-c3ccc4nc(-c5ccc(NC(=O)Nc6ccc(Cl)cc6)cc5)sc4c3)sc2c1S(=O)(=O)O
2. Cc1ccc2nc(-c3ccc4nc(-c5ccc(NC(=O)c6cc(C(F)(F)F)ccc6F)cc5)sc4c3)sc2c1S(=O)(=O)O

Return:
[0.56, 0.81]

Enquiry: Please give the measured log10(IC50) for this compound: Cc1ccc2nc(-c3ccc4nc(-c5ccc(NC(=O)c6c(F)cccc6C(F)(F)F)cc5)sc4c3)sc2c1S(=O)(=O)O
Return: 1.23

###

Consider the following compounds; for each one, report its Int.* (Ratio) (Interference).
# TARGET_SYSTEM: HCV NS3 helicase NS3h_1b(con1) (Hepatitis C virus genotype 1b)
# Construct: truncated C-terminally His-tagged NS3 proteins lacking the N-terminal protease, called NS3h; His-tag (C); made in house
# MEASUREMENT_DESCRIPTION: MBHA screen of NCI mechanistic set library at 20 μM (percent inhibition, compound interference)
# Type: biochemical
# TEST_CONTEXT: compounds at 20 μM; assay interference calculated with Equation 2 (fluorescence vs DMSO-only controls before ATP)
Give bare numbers, in Ratio.

Example entries and their recorded answers appear below.
{"COMPOUND": "C[C@]12C=CC(=O)C=C1[C@@H](F)C[C@H]1[C@@H]3CC[C@](O)(C(=O)CO)[C@@]3(C)C[C@H](O)[C@@]12F [Compound 77021]", "TARGET_SYSTEM": "HCV NS3 helicase NS3h_1b(con1) (Hepatitis C virus genotype 1b)", "UNIT_LABEL": "Ratio", "Int.* (Ratio) (Interference)": 1.00}
{"COMPOUND": "NC(=Nc1nc(-c2ccccn2)cc2ccccc12)c1ccccn1 [Compound 637578]", "TARGET_SYSTEM": "HCV NS3 helicase NS3h_1b(con1) (Hepatitis C virus genotype 1b)", "UNIT_LABEL": "Ratio", "Int.* (Ratio) (Interference)": 0.97}
{"COMPOUND": "COc1ccc(C[C@@H]2NC[C@@H](O)[C@@H]2OC(C)=O)cc1.Cl [Compound 147340]", "TARGET_SYSTEM": "HCV NS3 helicase NS3h_1b(con1) (Hepatitis C virus genotype 1b)", "UNIT_LABEL": "Ratio", "Int.* (Ratio) (Interference)": 1.01}

Here are 5 compounds. What values of Int.* (Ratio) (Interference) were reported for them?
1. CCCCOCc1cc(CN2CCN(C)CC2)c(O)c2ncccc12 [Compound 20514]
2. O=C1Nc2ccc(Br)cc2/C1=C\C(=O)c1ccccc1 [Compound 294961]
3. COc1ccc2c(NCCCCCCNc3c4ccccc4nc4cc(OC)ccc34)c3ccccc3nc2c1 [Compound 260610]
4. Cc1cc(O)c(/C=N/C(N)=S)c(=O)o1 [Compound 657449]
5. CC[C@](C)(O)C(=O)O[C@H]1C(=O)O[C@@H]2C[C@H]3C(C)=C[C@H](O)[C@@H](O)[C@]3(C)[C@H]3[C@@]4(O)OC[C@]32[C@@H]1[C@@H](C)[C@H]4O [Compound 14975]

Return:
1.06
1.06
0.27
1.00
1.03

Each recorded value in this set is attributed to patent US9464064B2.
